experimental_details: Toxicity (cell number) in HeLa cells
conditions_used: human
Overview of reported CC50 at 72 h across a group of compounds:
Only the number, expressed in µM, is required.

1) Cc1nc(-c2ccc(C3N(C)c4ccc(F)cc4C(=O)N3c3ccc(O)cc3)s2)cs1 (stereo not shown) [Compound 6]: 20.4

Next item in the queue.
Req: Report CC50 at 72 h, nothing else, for this compound: Cc1nc(-c2ccc(C3N(C)c4ccc(F)cc4C(=O)N3c3ccccc3O)s2)cs1 (stereo not shown) [Compound 2]
Resp: 32.3

---

experimental_details: Toxicity (cell number) in MRC5 cells
conditions_used: human
test_readout: CC50 at 72 h (µM)
Only the number, expressed in µM, is required.

Req: Report CC50 at 72 h, nothing else, for this compound: Cc1nc(-c2ccc(C3N(C)c4ccc(F)cc4C(=O)N3c3ccc(O)cc3)s2)cs1 (stereo not shown) [Compound 6]
Resp: 16.7

Req: Report CC50 at 72 h, nothing else, for this compound: Cc1nc(-c2ccc(C3N(C)c4ccc(F)cc4C(=O)N3c3ccccc3O)s2)cs1 (stereo not shown) [Compound 2]
Resp: 21

Req: Report CC50 at 72 h, nothing else, for this compound: Cc1nc(-c2ccc(C3N(C)c4ccc(F)cc4C(=O)N3c3ccccc3N)s2)cs1 (stereo not shown) [Compound 1]
Resp: 21.5

---

experimental_details: Toxicity (cell number) in Hep2 cells
conditions_used: human
test_readout: CC50 at 72 h (µM)
Only the number, expressed in µM, is required.

1) Cc1nc(-c2ccc(C3N(C)c4ccc(F)cc4C(=O)N3c3ccc(O)cc3)s2)cs1 (stereo not shown): 25.6

Next item in the queue.
Req: Report CC50 at 72 h, nothing else, for this compound: Cc1nc(-c2ccc(C3N(C)c4ccc(F)cc4C(=O)N3c3ccccc3O)s2)cs1 (stereo not shown)
Resp: 37.6
